For each of the molecules below, state its pEC50.
# subject of test: Bile acid receptor (Homo sapiens, UniProt Q96RI1)
# protocol notes: Agonist activity at GST-fused FXR-LBD (unknown origin) incubated with Fluorecein-SRC2-2 coactivator peptide as substrate by TR-FRET assay
Answers are plain numbers, as −log10 of the molar value.

>>> value_reported("CC(C)c1onc(-c2c(Cl)cccc2Cl)c1COc1ccc(-c2nc3ccc(C(=O)O)cc3n2CC(C)(C)C)cc1")
7.61

Now look at this entry.
Report pEC50 for CCC(CC)n1c(-c2ccc(OCc3c(-c4c(Cl)cccc4Cl)noc3C(C)C)cc2Cl)nc2ccc(C(=O)O)cc21 please.
7.67

----------
# subject of test: Bile acid receptor (Homo sapiens)
# Sequence (Q96RI1 whole entry): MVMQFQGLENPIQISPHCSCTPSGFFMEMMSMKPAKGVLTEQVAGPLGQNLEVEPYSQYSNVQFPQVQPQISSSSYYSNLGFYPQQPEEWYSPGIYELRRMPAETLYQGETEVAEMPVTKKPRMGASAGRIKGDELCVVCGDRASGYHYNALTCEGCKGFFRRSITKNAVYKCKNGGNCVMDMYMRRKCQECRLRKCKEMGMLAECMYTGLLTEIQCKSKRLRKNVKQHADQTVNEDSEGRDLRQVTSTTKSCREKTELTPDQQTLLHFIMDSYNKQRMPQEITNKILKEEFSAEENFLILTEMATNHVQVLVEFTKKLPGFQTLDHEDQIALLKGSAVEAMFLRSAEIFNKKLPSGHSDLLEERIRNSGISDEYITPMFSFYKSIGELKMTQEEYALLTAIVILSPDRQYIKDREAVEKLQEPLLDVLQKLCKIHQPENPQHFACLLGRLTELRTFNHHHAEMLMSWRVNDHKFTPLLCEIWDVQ
# protocol notes: Agonist activity at human FXR expressed in human HuH7 cells by luciferase reporter gene assay
# Type: cell-based, Huh-7
endpoint: pEC50
One number for each entry, as −log10 of the molar value.

>>> value_reported("CC(C)c1onc(-c2c(Cl)cccc2Cl)c1COc1ccc(-c2nc3ccc(C(=O)O)cc3n2CC(C)(C)C)cc1")
7.89

# evaluate next
Give its pEC50 value. Item: CCC(CC)n1c(-c2ccc(OCc3c(-c4c(Cl)cccc4Cl)noc3C(C)C)cc2Cl)nc2ccc(C(=O)O)cc21
8.80
